# ASSAYED SYSTEM: Serine/threonine-protein kinase MARK2 (Homo sapiens) (UniProt Q7KZI7)
# Sequence (Q7KZI7 whole entry): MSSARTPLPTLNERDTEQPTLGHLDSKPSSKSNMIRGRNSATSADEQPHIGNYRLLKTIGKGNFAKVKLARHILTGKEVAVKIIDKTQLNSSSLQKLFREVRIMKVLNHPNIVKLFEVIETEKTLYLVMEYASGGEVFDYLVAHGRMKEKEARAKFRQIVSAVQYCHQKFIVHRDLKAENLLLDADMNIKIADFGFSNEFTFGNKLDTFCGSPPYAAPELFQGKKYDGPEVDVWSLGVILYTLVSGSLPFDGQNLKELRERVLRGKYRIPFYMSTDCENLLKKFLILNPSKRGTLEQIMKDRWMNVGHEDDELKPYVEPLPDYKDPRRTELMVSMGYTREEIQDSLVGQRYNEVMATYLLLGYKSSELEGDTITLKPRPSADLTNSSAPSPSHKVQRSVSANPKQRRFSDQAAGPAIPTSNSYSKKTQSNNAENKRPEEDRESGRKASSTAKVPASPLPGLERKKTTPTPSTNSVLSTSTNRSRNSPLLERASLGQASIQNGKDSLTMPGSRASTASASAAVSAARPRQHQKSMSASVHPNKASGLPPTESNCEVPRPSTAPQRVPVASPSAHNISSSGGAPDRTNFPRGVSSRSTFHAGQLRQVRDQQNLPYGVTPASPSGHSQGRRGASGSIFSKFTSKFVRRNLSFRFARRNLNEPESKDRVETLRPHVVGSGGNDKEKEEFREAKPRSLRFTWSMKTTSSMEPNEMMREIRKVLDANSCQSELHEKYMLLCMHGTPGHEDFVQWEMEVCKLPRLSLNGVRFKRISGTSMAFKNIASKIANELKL
# PROCEDURE TEXT: Inhibition of MARK2 at 1 uM
MEASUREMENT TYPE: inhibition

q: // lookup inhibition | system=Serine/threonine-protein kinase MARK2 (Homo sapiens) (UniProt Q7KZI7) | key= O=C(O)c1ccc(-c2cnc3c(c2)N(Cc2cc(Cl)ccc2C(F)(F)F)CCN3)cc1
a: 85%

q: Please do the same for CN1CCN(c2ccc(-c3cnc4c(c3)N(Cc3cc(Cl)ccc3C(F)(F)F)CCN4)cn2)CC1 as well.
a: < 50%

q: Thanks! And CN1CCN(c2ccc(-c3cnc4c(c3)N(Cc3cc(Cl)ccc3Cl)CCN4)cn2)CC1 ?
a: < 50%

q: Request: CN1CCN(c2ccc(-c3cnc4c(c3)N(Cc3cc(F)ccc3F)CCN4)cn2)CC1
a: < 50%

q: Can you check CN1CCN(c2ccc(-c3cnc4c(c3)N(Cc3c(F)ccc(F)c3Cl)CCN4)cn2)CC1 next?
a: < 50%

q: Same read-out for CC(=O)N1CCN(c2cc(-c3cnc4c(c3)N(Cc3cc(Cl)ccc3C(F)(F)F)CCN4)ccn2)CC1 ?
a: 66%

====

Attribute: inhibition
# ASSAYED SYSTEM: RAC-beta serine/threonine-protein kinase (Homo sapiens)
# PROCEDURE TEXT: Inhibition of AKT2 at 1 uM

// known answers, use as guide
COC1CCN(C(=O)c2ccc(-c3cnc4c(c3)N(Cc3cc(Cl)ccc3C(F)(F)F)CCN4)cc2)CC1: < 50%
CN1CCN(c2ccc(-c3cnc4c(c3)N(Cc3cc(Cl)ccc3Cl)CCN4)cn2)CC1: < 50%

q: Which inhibition value belongs to FC(F)(F)c1ccc(Cl)cc1CN1CCNc2ncc(-c3ccnc(N4CCNCC4)c3)cc21 ?
a: < 50%

====

# Tested on: Receptor-type tyrosine-protein kinase FLT3 (Homo sapiens), P36888 [D835Y]
# PROCEDURE TEXT: Inhibition of FLT3 D835Y mutant at 1 uM
MEASUREMENT TYPE: inhibition

// worked examples, inhibition included
O=C(O)c1ccc(-c2cnc3c(c2)N(Cc2cc(Cl)ccc2C(F)(F)F)CCN3)cc1: < 50%
CN1CCN(c2ccc(-c3cnc4c(c3)N(Cc3c(F)ccc(F)c3Cl)CCN4)cn2)CC1: < 50%

Next, consider the following compound.
q: Kindly state the measured inhibition obtained for O=C(c1ccc(-c2cnc3c(c2)N(Cc2cc(Cl)ccc2C(F)(F)F)CCN3)cc1)N1CCCCC1 with Receptor-type tyrosine-protein kinase FLT3 (Homo sapiens), P36888 [D835Y].
a: < 50%

====

# ASSAYED SYSTEM: Mitogen-activated protein kinase kinase kinase kinase 2 (Homo sapiens)
# PROCEDURE TEXT: Inhibition of MAP4K2 at 1 uM
MEASUREMENT TYPE: inhibition

Study these solved cases before continuing.
CN1CCN(c2ccc(-c3cnc4c(c3)N(Cc3cc(Cl)ccc3C(F)(F)F)CCN4)cn2)CC1: < 50%
CC(=O)N1CCN(c2cc(-c3cnc4c(c3)N(Cc3cc(Cl)ccc3C(F)(F)F)CCN4)ccn2)CC1: < 50%

Could you now look at the following molecule, please?
q: Provide the documented inhibition with Mitogen-activated protein kinase kinase kinase kinase 2 (Homo sapiens) as the system for CN1CCN(c2ccc(-c3cnc4c(c3)N(Cc3cc(Cl)ccc3Cl)CCN4)cn2)CC1
a: < 50%
